biological target: Vif/EloB/C/CBFβ quaternary complex (full-length HIV-1 HXB2 Vif(1-192) / ElonginB 1-118 / ElonginC 17 (HIV-1 HXB2; human), P69720; experiment: fluorescence anisotropy, complex titrated into 25 nM 5-FAM peptide; Sd ± 1.0
Value Type: Kd (µM)
The figure you give is taken to be in µM; do not add the unit.

Returns the measured Kd for the input binder. Input: LFSDVHAVCLWDDKGPAKIHQAL (modifications not checked) [Cul5(43-65) peptide]
4.7
